- protocol details: in vitro
- assay context: human, microsomes, pH 7.4
Structures can show the parent of a compound that is named as a salt.
Below, each entry is listed alongside its reported half-life.
readout name: half-life

{"columns": ["compound", "readout value"],
 "data": [
  ["CCCCCCCC(=O)N[C@H](CN1CCCC1)[C@H](OC(=O)c1ccccc1N)c1ccc2c(c1)OCCO2", "< 30 min"],
  ["CCCCCCCC(=O)N[C@H](CN1CCCC1)[C@H](OC(=O)Cc1ccccc1)c1ccc2c(c1)OCCO2 [I-b Hemitartrate salt]", "< 30 min"]
]}

###

Listed below: half-life values for each entry.
- protocol details: Metabolic stability of prodrugs in human liver microsomes
- assay context: pH 7.4
Structures can show the parent of a compound that is named as a salt.
readout name: half-life (h)

{"columns": ["compound", "readout name", "unit symbol", "bound type", "readout value"],
 "data": [
  ["CCCCCCCC(=O)N[C@H](CN1CCCC1)[C@H](OC(=O)/C=C/C(=O)O)c1ccc2c(c1)OCCO2 [I-s]", "half-life", "h", "=", 1.07],
  ["CCCCCCCC(=O)N[C@H](CN1CCCC1)[C@H](O)c1ccc2c(c1)OCCO2 [Eliglustat]", "half-life", "h", "=", 0.5],
  ["CCCCCCCC(=O)N[C@H](CN1CCCC1)[C@H](OS(N)(=O)=O)c1ccc2c(c1)OCCO2 [IV-c]", "half-life", "h", "<", 0.5],
  ["CCCCCCCCCCCC(=O)O[C@H](c1ccc2c(c1)OCCO2)[C@@H](CN1CCCC1)NC(=O)CCCCCCC [I-k Hemitartrate salt]", "half-life", "h", "=", 1.17]
]}
